# experimental.system: insulin-degrading enzyme (recombinant human IDE) (human), P14735
# test.settings: modification not given
measured.attribute: Ki (µM)
Report only the number, with the unit µM understood.

Query string: Given the binder FRY [4-(tert-butyl)-phenylalanine] , write its reported Ki.
Result string: 16
